Origin of the recorded values: paper PMC7180767

# assay comment: in vitro
# condition info: Spirostomum ambiguum, pH 6
measurement label: LC50 at 2 d

• CN[C@H]1CC[C@@H](c2ccc(Cl)c(Cl)c2)c2ccccc21 = 0.49 µg/mL

Now examine the next entry.
According to the records, this molecule `Fc1ccc([C@@H]2CCNC[C@H]2COc2ccc3c(c2)OCO3)cc1` displays LC50 at 2 d of 2.55 µg/mL

###

# assay comment: in vitro
# condition info: Spirostomum ambiguum, pH 6.5
measurement label: LC50 at 1 d (µg/mL)
Output spec: scalar in µg/mL, unitless text.

* CN[C@H]1CC[C@@H](c2ccc(Cl)c(Cl)c2)c2ccccc21 | 0.47

According to the records, this compound `Fc1ccc([C@@H]2CCNC[C@H]2COc2ccc3c(c2)OCO3)cc1` displays LC50 at 1 d of 1.4
